target: Protein farnesyltransferase (Rattus norvegicus, UniProt Q02293+Q04631); assay: Inhibition of biotinylated lamin B peptide farnesylation by rat farnesyltransferase
I'd appreciate it if you could supply IC50 values for the items below.
One number for each entry, in nM.

Here's what some known entries look like.
{"compound": "C=C(C)CN(C1Cc2cc(C#N)ccc2N(Cc2cncn2C)C1)S(=O)(=O)c1cn(C)cn1 (stereo not drawn)", "subject_of_test": "Protein farnesyltransferase (Rattus norvegicus, UniProt Q02293+Q04631)", "unit_of_measure": "nM", "IC50": 0.7}
{"compound": "Cn1cncc1CN1CC(N(CC(=O)NC(C)(C)C)S(=O)(=O)c2ccncc2)Cc2cc(C#N)ccc21 (stereo not drawn)", "subject_of_test": "Protein farnesyltransferase (Rattus norvegicus, UniProt Q02293+Q04631)", "unit_of_measure": "nM", "IC50": 160}

Working through the 6 compounds below one at a time, give IC50 for each.
1. Cn1cncc1CN1CC(N(CC(=O)NC(C)(C)C)S(=O)(=O)c2cccnc2)Cc2cc(C#N)ccc21 (stereo not drawn)
2. Cn1cnc(S(=O)(=O)N(Cc2ccc3ccccc3c2Br)C2Cc3cc(C#N)ccc3N(Cc3cncn3C)C2)c1 (stereo not drawn)
3. Cn1cncc1CN1CC(N(CC(=O)NC(C)(C)C)S(=O)(=O)Cc2ccc(F)cc2)Cc2cc(C#N)ccc21 (stereo not drawn)
4. Cn1cnc(S(=O)(=O)N(Cc2ccccc2)C2Cc3cc(C#N)ccc3N(Cc3cncn3C)C2)c1 (stereo not drawn)
5. Cn1cncc1CN1CC(N(Cc2cc3nsnc3cc2Cl)S(=O)(=O)c2ccccn2)Cc2cc(C#N)ccc21 (stereo not drawn)
6. Cn1cncc1CN1CC(N(Cc2ccccn2)S(=O)(=O)c2ccccn2)Cc2cc(C#N)ccc21 (stereo not drawn)

Ans:
6
1000
7.6
1.2
10
3.8

* * *

Biological target: Protein farnesyltransferase (PFT) (Plasmodium falciparum, UniProt Q5EI73+Q5EI74)
Sequence (Q5EI73 whole entry): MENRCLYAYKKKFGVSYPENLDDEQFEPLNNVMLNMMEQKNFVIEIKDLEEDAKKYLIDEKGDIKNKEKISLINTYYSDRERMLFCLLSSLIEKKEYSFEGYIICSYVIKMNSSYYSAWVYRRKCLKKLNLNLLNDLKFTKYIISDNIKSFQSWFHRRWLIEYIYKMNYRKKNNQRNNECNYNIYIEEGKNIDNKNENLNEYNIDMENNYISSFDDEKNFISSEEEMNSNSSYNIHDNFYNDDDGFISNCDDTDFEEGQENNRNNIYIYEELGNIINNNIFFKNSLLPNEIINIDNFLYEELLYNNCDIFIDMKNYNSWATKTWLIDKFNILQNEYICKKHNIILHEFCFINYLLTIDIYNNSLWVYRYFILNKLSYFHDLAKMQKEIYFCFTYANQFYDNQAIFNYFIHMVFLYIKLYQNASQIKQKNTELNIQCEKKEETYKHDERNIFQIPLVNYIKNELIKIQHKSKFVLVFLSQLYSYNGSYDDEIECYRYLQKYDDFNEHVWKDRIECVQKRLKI
Sequence (Q5EI74 whole entry): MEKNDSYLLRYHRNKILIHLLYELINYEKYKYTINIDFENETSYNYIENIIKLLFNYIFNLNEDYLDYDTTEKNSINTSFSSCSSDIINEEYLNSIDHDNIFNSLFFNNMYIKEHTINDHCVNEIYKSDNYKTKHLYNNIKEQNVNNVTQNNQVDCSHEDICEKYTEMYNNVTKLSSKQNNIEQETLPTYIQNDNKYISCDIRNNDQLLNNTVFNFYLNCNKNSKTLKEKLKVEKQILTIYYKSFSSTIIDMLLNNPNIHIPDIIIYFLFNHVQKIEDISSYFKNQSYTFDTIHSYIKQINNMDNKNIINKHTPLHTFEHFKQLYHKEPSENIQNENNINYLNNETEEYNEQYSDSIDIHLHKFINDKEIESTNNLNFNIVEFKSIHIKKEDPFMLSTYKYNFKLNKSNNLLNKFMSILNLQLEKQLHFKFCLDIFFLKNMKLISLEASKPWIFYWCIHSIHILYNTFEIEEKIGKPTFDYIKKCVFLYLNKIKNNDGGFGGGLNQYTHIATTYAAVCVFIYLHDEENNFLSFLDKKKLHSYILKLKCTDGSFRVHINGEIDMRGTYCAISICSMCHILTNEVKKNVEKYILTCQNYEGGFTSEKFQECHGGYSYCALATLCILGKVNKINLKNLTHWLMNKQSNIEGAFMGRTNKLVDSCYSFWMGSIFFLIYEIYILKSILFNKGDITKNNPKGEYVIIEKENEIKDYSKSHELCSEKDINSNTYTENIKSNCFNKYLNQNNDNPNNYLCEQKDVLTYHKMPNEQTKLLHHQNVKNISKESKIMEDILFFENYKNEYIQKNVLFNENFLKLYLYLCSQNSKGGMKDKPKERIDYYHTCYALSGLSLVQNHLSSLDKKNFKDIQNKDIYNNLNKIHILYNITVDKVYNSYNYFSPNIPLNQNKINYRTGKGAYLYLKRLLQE
Test: Inhibition of biotinylated lamin B peptide farnesylation by Plasmodium falciparum farnesyltransferase
I'd appreciate it if you could supply IC50 values for the items below.
Numbers only, in nM.

Here's what some known entries look like.
{"compound": "Cn1cncc1CN1CC(N(Cc2ccccn2)S(=O)(=O)c2ccccn2)Cc2cc(C#N)ccc21 (configuration not stated)", "subject_of_test": "Protein farnesyltransferase (PFT) (Plasmodium falciparum, UniProt Q5EI73+Q5EI74)", "meas_value": 2.8}
{"compound": "CCSC[C@H](CC1CCCCC1)NCc1ccc(C(=O)N[C@@H](CCSC)C(=O)O)c(-c2ccccc2C)c1", "subject_of_test": "Protein farnesyltransferase (PFT) (Plasmodium falciparum, UniProt Q5EI73+Q5EI74)", "meas_value": 5}
{"compound": "CSCC[C@H](NC(=O)c1ccc(CNCc2c[nH]cn2)cc1-c1ccccc1C)C(=O)O", "subject_of_test": "Protein farnesyltransferase (PFT) (Plasmodium falciparum, UniProt Q5EI73+Q5EI74)", "meas_value": 15}
{"compound": "Cn1cncc1CN1CC(N(Cc2ccc3ccccc3c2Br)S(=O)(=O)c2ccccn2)Cc2cc(C#N)ccc21 (configuration not stated)", "subject_of_test": "Protein farnesyltransferase (PFT) (Plasmodium falciparum, UniProt Q5EI73+Q5EI74)", "meas_value": 165}
{"compound": "Cn1cncc1CN1CC(N(CC(=O)NC(C)(C)C)S(=O)(=O)c2nccn2C)Cc2cc(C#N)ccc21 (configuration not stated)", "subject_of_test": "Protein farnesyltransferase (PFT) (Plasmodium falciparum, UniProt Q5EI73+Q5EI74)", "meas_value": 8}
{"compound": "Cn1cnc(S(=O)(=O)N(Cc2ccc3ccccc3c2Br)C2Cc3cc(C#N)ccc3N(Cc3cncn3C)C2)c1 (configuration not stated)", "subject_of_test": "Protein farnesyltransferase (PFT) (Plasmodium falciparum, UniProt Q5EI73+Q5EI74)", "meas_value": 28}
{"compound": "Cc1onc(-c2ccccc2)c1CN(C1Cc2cc(C#N)ccc2N(Cc2cncn2C)C1)S(=O)(=O)c1ccccn1 (configuration not stated)", "subject_of_test": "Protein farnesyltransferase (PFT) (Plasmodium falciparum, UniProt Q5EI73+Q5EI74)", "meas_value": 0.8}
{"compound": "Cn1cnc(S(=O)(=O)N(CC(=O)OC(C)(C)C)C2Cc3cc(C#N)ccc3N(Cc3cncn3C)C2)c1 (configuration not stated)", "subject_of_test": "Protein farnesyltransferase (PFT) (Plasmodium falciparum, UniProt Q5EI73+Q5EI74)", "meas_value": 0.9}
{"compound": "Cc1ccccc1CN(C1Cc2cc(C#N)ccc2N(Cc2cncn2C)C1)S(=O)(=O)c1cn(C)cn1 (configuration not stated)", "subject_of_test": "Protein farnesyltransferase (PFT) (Plasmodium falciparum, UniProt Q5EI73+Q5EI74)", "meas_value": 1.5}
{"compound": "C=C(Br)CN(C1Cc2cc(C#N)ccc2N(Cc2cncn2C)C1)S(=O)(=O)c1cn(C)cn1 (configuration not stated)", "subject_of_test": "Protein farnesyltransferase (PFT) (Plasmodium falciparum, UniProt Q5EI73+Q5EI74)", "meas_value": 0.4}

Working through the 3 compounds below one at a time, give IC50 for each.
1. Cn1cncc1CN1CC(N(CC(=O)NC(C)(C)C)S(=O)(=O)Cc2ccc(F)cc2)Cc2cc(C#N)ccc21 (configuration not stated)
2. CSCC[C@H](NC(=O)c1ccc(CNCc2cnc[nH]2)cc1-c1ccccc1C)C(=O)OCc1ccccc1
3. Cn1cncc1[C@@](N)(c1ccc(Cl)cc1)c1ccc2c(c1)c(-c1cccc(Cl)c1)cc(=O)n2C

Ans:
1. 42
2. 1000
3. 7

* * *

molecular target: Protein farnesyltransferase (Rattus norvegicus, UniProt Q02293+Q04631); test: Inhibition of biotinylated lamin B peptide farnesylation by rat farnesyltransferase
parameter_measured: pIC50
Answers are plain numbers, as −log10 of the molar value.

Working through the 4 molecules below one at a time, give pIC50 for each.
1. C=C(Br)CN(C1Cc2cc(C#N)ccc2N(Cc2cncn2C)C1)S(=O)(=O)c1cn(C)cn1 (centres undefined)
2. Cn1cncc1CN1CC(N(CC(=O)NC(C)(C)C)S(=O)(=O)c2ccccn2)Cc2cc(C#N)ccc21 (centres undefined)
3. Cn1cnc(S(=O)(=O)N(CC(=O)OC(C)(C)C)C2Cc3cc(C#N)ccc3N(Cc3cncn3C)C2)c1 (centres undefined)
4. Cn1cnc(S(=O)(=O)N(CC2CCN(C(=O)OC(C)(C)C)CC2)C2Cc3cc(C#N)ccc3N(Cc3cncn3C)C2)c1 (centres undefined)

Ans:
1. 9.10
2. 8.74
3. 8.92
4. 8.49
